testedTarget: Neuropilin-1 (Homo sapiens) (UniProt O14786)
Sequence (O14786 whole entry, looked up): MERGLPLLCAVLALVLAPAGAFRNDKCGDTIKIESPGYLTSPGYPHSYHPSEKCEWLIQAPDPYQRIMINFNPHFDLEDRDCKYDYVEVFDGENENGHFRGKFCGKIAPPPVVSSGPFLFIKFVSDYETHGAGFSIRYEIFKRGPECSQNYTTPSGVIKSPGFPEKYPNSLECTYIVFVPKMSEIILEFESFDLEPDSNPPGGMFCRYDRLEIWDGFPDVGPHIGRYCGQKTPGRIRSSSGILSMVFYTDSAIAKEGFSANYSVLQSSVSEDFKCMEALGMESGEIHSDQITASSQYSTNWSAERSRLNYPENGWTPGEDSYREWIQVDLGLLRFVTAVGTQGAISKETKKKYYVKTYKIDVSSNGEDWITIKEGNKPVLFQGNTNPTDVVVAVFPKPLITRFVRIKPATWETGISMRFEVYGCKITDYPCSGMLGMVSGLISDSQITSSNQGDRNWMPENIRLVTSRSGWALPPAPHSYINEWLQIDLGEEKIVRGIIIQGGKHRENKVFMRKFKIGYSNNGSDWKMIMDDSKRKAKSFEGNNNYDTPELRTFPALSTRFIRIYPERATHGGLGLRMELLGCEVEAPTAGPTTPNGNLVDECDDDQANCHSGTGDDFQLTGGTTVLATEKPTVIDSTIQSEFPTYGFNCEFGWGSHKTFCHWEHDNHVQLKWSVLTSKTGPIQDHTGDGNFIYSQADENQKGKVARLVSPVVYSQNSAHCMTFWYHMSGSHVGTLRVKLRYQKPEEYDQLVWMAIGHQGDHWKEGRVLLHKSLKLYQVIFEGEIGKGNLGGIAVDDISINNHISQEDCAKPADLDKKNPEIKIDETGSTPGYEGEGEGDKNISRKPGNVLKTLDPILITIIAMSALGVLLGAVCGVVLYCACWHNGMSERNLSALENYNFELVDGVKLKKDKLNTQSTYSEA
protocolText: blockers of CendR peptide binding to NRP-1 – biochemical, FP and AlphaScreen panel, dose response (AID 651650)
measurementContext: NRP-1 b1b2 / RPARPAR peptide binding, FP or AlphaScreen; run 1, at 100 µM (top of the series)
recordedMetric: inhibition (%)

{"molecule": "O=C(O)c1cc(NCc2ccc(F)cc2)ccc1N1CCOCC1", "assayResult": 46.8}
{"molecule": "COC(=O)C1=C(C)NC(C)=C(C(=O)OC)C1C(=O)OC(C)C(=O)c1ccccc1 (stereo not given)", "assayResult": 12.9}
{"molecule": "CCC1=C(OC(=O)N(CC)CC)N2C(=O)OC(=NCC3CC3)[C@]2(Cc2ccccc2)[C@H]2C1=CC[C@H]1C(=O)N(C)C(=O)[C@H]12", "assayResult": -6.33}
{"molecule": "COc1ccc2c(c1OC)CN1CCc3cc4c(cc3[C@@H]1[C@@H]2O)OCO4", "assayResult": -3.65}
{"molecule": "O=C(O)c1cccc(N2C(=O)c3cc([N+](=O)[O-])cc4cc([N+](=O)[O-])cc(c34)C2=O)c1", "assayResult": 32.7}

---

testedTarget: Neuropilin-1 (Homo sapiens) (UniProt O14786)
protocolText: blockers of CendR peptide binding to NRP-1 – biochemical, FP and AlphaScreen panel, dose response (AID 651650)
measurementContext: NRP-1 b1b2 / RPARPAR peptide binding, FP or AlphaScreen; run 1, at 100 µM (top of the series)

{"molecule": "COc1cc2c(cc1OC)C(Nc1ccc(S(N)(=O)=O)cc1)=NC(C)(C)C2", "inhibition [%]": 71.9}
{"molecule": "O=C(Cc1ccccc1Cl)N1CCOCC1", "inhibition [%]": 25.2}
{"molecule": "Cc1ccc(Nc2c(-c3ccccc3O)nc3ncccn23)cc1", "inhibition [%]": 19.2}
{"molecule": "CC(/C=C/c1ccccc1)=N\\NC(=O)CCc1ccccc1", "inhibition [%]": 19.2}
{"molecule": "Cn1cnc2cc(NC(=O)c3ccco3)ccc21", "inhibition [%]": 77.5}
{"molecule": "CCOC(=O)Cc1csc(NC(=O)CSc2ncnc3c2cnn3-c2ccccc2Cl)n1", "inhibition [%]": 11.5}
{"molecule": "COc1ccccc1N1CCN(C2CCCN(C(=O)Cn3cccn3)C2)CC1 (stereo unspecified)", "inhibition [%]": 38.2}
{"molecule": "O=C(NCc1ccccc1)C(c1cccnc1)N(C(=O)c1ccccn1)c1ccccc1F (stereo unspecified)", "inhibition [%]": 43.9}
{"molecule": "CCCNC(=O)[C@H]1N2C(=O)c3c(ccc(OC)c3OC)C2SC1(C)C (stereo partly specified)", "inhibition [%]": 51.5}
{"molecule": "CC1(C)S[C@@H]2[C@H](NC(=O)COc3ccccc3)C(=O)N2C1C(=O)OCc1ccccc1 (stereo partly specified)", "inhibition [%]": 53.2}
{"molecule": "CCC1CCCCN1C(=S)Nc1ccc(OC(F)F)cc1 (stereo unspecified)", "inhibition [%]": 69.3}

---

Below: a set of entries, each annotated with reported inhibition.
testedTarget: Neuropilin-1 (Homo sapiens)
protocolText: blockers of CendR peptide binding to NRP-1 – biochemical, FP and AlphaScreen panel, dose response (AID 651650)
measurementContext: NRP-1 b1b2 / RPARPAR peptide binding, FP or AlphaScreen; run 1, at 100 µM (top of the series)

{"compound": "O=C(NCCOC(=O)c1ccccc1)c1ccccc1", "readoutUnits": "%", "inhibition": 72.3}
{"compound": "NCCCC[C@H]1CN=C(N)N1CCC12CC3CC(CC(C3)C1)C2", "readoutUnits": "%", "inhibition": 70.7}
{"compound": "COc1cc(OC)nc(NC(=O)COC(=O)c2cccc(Cl)c2)n1", "readoutUnits": "%", "inhibition": 98.8}
{"compound": "CC1(C)c2ccccc2C(=O)c2ccccc21", "readoutUnits": "%", "inhibition": -7.21}
{"compound": "CC(=O)Nc1ccccc1OCC(=O)N(Cc1ccccc1)C(C)C", "readoutUnits": "%", "inhibition": 18.2}
{"compound": "C=CCOc1ccc(C2/C(=C(\\O)c3c(C)[nH]c(C(=O)OC)c3C)C(=O)C(=O)N2CCN(C)C)cc1 (stereo unspecified)", "readoutUnits": "%", "inhibition": 3.64}
